Molecular target: Bcl-2-related protein A1 (Homo sapiens, UniProt Q16548)
Sequence (Q16548 whole entry): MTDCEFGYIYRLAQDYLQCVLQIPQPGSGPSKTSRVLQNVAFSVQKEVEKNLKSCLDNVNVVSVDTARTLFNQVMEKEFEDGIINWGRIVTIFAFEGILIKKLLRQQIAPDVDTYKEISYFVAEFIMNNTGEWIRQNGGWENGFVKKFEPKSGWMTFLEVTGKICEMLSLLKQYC
Experiment: Inhibition of N-terminal FITC BH3 peptide binding to GST-tagged Bfl1 by time resolved-FRET assay
readout: IC50

Answered cases to consult:
# molecule, IC50
data = [
    ("O=C1C(Cl)=C(NCCO)C(=O)N1c1ccc(Cl)c(Cl)c1", "> 50 µM"),
    ("CN1CCN(C2CC(=O)N(c3ccc(Cl)c(Cl)c3)C2=O)CC1 (configuration not stated)", "> 10 µM"),
    ("O=C1C(Cl)=C(N2CCN(c3cccc(C(F)(F)F)c3)CC2)C(=O)N1c1ccc(Cl)c(Cl)c1", "> 10 µM"),
]

**Query** Using known records, supply IC50 for O=C1C(Cl)=C(N2CCCC2)C(=O)N1c1ccc(Cl)c(Cl)c1
**Result** > 50 µM

**Query** Please report IC50 for the following molecule: O=C1C(Cl)=C(N2CCCCC2)C(=O)N1c1ccc(Cl)c(Cl)c1
**Result** > 50 µM

**Query** Provide IC50 value for the following molecule: CN1CCN(C2=CC(=O)N(c3ccc(Cl)cc3)C2=O)CC1
**Result** > 10 µM

**Query** Write down IC50 measured for item O=C1C(Cl)=C(NCc2ccccc2)C(=O)N1c1ccc(Cl)c(Cl)c1
**Result** > 50 µM
